Values were extracted from paper PMC4879574.

Biological target: Leishmania donovani Topoisomerase 1 (LdTop1) (Leishmania donovani, UniProt A0A3Q8IHS4+Q8WQM6)
Sequence (Q8WQM6 entry or part of it): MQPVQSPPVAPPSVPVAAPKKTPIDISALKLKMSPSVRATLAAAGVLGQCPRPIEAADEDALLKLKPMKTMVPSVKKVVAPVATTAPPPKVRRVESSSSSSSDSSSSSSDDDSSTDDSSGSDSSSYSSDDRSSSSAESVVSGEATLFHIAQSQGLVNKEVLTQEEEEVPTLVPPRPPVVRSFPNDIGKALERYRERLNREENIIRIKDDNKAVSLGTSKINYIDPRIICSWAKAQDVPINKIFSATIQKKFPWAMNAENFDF
Sequence (A0A3Q8IHS4 entry or part of it): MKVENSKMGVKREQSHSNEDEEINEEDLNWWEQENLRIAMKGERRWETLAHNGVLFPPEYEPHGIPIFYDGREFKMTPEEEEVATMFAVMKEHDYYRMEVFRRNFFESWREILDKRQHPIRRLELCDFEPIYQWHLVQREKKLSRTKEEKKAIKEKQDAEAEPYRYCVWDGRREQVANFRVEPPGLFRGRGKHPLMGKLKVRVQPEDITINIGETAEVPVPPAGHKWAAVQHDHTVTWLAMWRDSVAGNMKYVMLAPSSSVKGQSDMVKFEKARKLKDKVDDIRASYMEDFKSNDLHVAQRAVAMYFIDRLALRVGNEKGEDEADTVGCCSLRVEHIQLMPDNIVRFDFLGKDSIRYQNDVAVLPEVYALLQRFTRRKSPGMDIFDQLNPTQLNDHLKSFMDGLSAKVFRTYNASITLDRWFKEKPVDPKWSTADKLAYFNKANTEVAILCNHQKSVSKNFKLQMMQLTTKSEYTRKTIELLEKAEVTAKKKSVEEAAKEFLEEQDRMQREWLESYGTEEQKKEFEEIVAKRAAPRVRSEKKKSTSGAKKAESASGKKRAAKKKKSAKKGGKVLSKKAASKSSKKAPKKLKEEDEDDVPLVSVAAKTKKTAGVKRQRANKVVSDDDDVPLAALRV
Assay: Plasmid DNA relaxation assay, LdTop1 (simultaneous incubation)
Type: biochemical
Conditions: LdTop1 relaxation, 50 uM; read-out: % inhibition, mean data
Procedure: To investigate the inhibitory effect of our library compounds on the DNA relaxation activity of the recombinant Human and Leishmania topoisomerase 1 (Table 2), assays were performed involving supercoiled plasmid DNA, the enzymes (HTop1 and LdTop1) and our molecules. The enzymes were purified by the standard literature procedure. All the experiments were conducted thrice and representative data from once set of them are expressed as mean ± SD. […]
Classification field: enter YES for inhibition at 50 µM values not below 90%, NO for values below it.

Recorded results for 3 compounds are shown here.
>  <structure_string>
COc1ccc(/C=C2\OC(=O)c3c2cc(C)[nH]c3=O)c(C)c1C

>  <qualitative_label>
NO

$$$$
>  <structure_string>
Cc1cc2c(c(=O)[nH]1)C(=O)O/C2=C\c1cccc(Cl)c1

>  <qualitative_label>
NO

$$$$
>  <structure_string>
Cc1cc2c(c(=O)[nH]1)C(=O)O/C2=C\c1cccc(I)c1

>  <qualitative_label>
NO

$$$$

Would you say Cc1cc2c(c(=O)[nH]1)C(=O)O/C2=C\c1ccc(O)c(O)c1 shows inhibition at 50 µM at minimum 90%?
YES

* * *

target: Leishmania donovani Topoisomerase 1 (LdTop1) (Leishmania donovani, UniProt A0A3Q8IHS4+Q8WQM6); test: Plasmid DNA relaxation assay, LdTop1 (simultaneous incubation); type: biochemical; settings: read-out: % inhibition (CPT 100%), data 1, LdTop1 relaxation, 25 uM
Outcome label depends on inhibition at 25 µM relative to 70%: at/above gives true (1), below gives false (0).

Hi, just wondering whether Cc1cc2c(c(=O)[nH]1)C(=O)O/C2=C\c1cccc(Cl)c1 shows inhibition at 25 µM of 70% or higher.
false (0)

For this compound, is measured inhibition at 25 µM 70% or higher? COc1ccc(/C=C2\OC(=O)c3c2cc(C)[nH]c3=O)c(C)c1C
false (0)

// inclusive: inhibition at 25 µM at least 70%? input: Cc1cc2c(c(=O)[nH]1)C(=O)O/C2=C\c1cccc(I)c1
false (0)

Is it the case that Cc1cc2c(c(=O)[nH]1)C(=O)O/C2=C\c1ccc(O)c(O)c1 has inhibition at 25 µM reaching or exceeding 70%?
true (1)

* * *

biological target: Leishmania donovani Topoisomerase 1 (LdTop1) (Leishmania donovani, UniProt A0A3Q8IHS4+Q8WQM6); test: Plasmid DNA relaxation assay, LdTop1 (simultaneous incubation); format: biochemical; settings: read-out: % inhibition (CPT 100%), data 2, LdTop1 relaxation, 100 uM
value_type: inhibition at 100 µM (%)
Numbers only, in %.

>  <structure_string>
Cc1cc2c(c(=O)[nH]1)C(=O)O/C2=C\c1cccc(Br)c1

>  <inhibition at 100 µM [%]>
90.5

$$$$
>  <structure_string>
Cc1cc2c(c(=O)[nH]1)C(=O)O/C2=C\c1cccc(Cl)c1

>  <inhibition at 100 µM [%]>
86.2

$$$$
>  <structure_string>
Cc1cc2c(c(=O)[nH]1)C(=O)O/C2=C\c1ccccc1C(F)(F)F

>  <inhibition at 100 µM [%]>
88.9

$$$$

I would be grateful if you could provide inhibition at 100 µM for each of the following entries.
1. Cc1cc2c(c(=O)[nH]1)C(=O)O/C2=C\c1ccc(O)c(O)c1
2. COc1ccc(/C=C2\OC(=O)c3c2cc(C)[nH]c3=O)c(C)c1C
3. Cc1cc2c(c(=O)[nH]1)C(=O)O/C2=C\c1cccc(I)c1

[100, 98.9, 90.5]

* * *

I'd appreciate it if you could supply inhibition at 25 µM values for the items below.
Biological target: Leishmania donovani Topoisomerase 1 (LdTop1) (Leishmania donovani, UniProt A0A3Q8IHS4+Q8WQM6)
Assay: Plasmid DNA relaxation assay, LdTop1 (simultaneous incubation)
Assay type: biochemical
Details: read-out: % inhibition (CPT 100%), data 2, LdTop1 relaxation, 25 uM
Experimental: To investigate the inhibitory effect of our library compounds on the DNA relaxation activity of the recombinant Human and Leishmania topoisomerase 1 (Table 2), assays were performed involving supercoiled plasmid DNA, the enzymes (HTop1 and LdTop1) and our molecules. The enzymes were purified by the standard literature procedure. All the experiments were conducted thrice and representative data from once set of them are expressed as mean ± SD. […]
Write the figure, then the unit, nothing else.

Look over these answered cases.
>  <structure_string>
Cc1cc2c(c(=O)[nH]1)C(=O)O/C2=C\c1cccc(Cl)c1

>  <inhibition at 25 µM>
49.4%

$$$$
>  <structure_string>
Cc1cc2c(c(=O)[nH]1)C(=O)O/C2=C\c1cccc(Br)c1

>  <inhibition at 25 µM>
66.8%

$$$$

Lab note: each compound below needs its inhibition at 25 µM filled in.
1. Cc1cc2c(c(=O)[nH]1)C(=O)O/C2=C\c1ccccc1C(F)(F)F
2. Cc1cc2c(c(=O)[nH]1)C(=O)O/C2=C\c1cccc(I)c1
3. Cc1cc2c(c(=O)[nH]1)C(=O)O/C2=C\c1ccc(O)c(O)c1
4. COc1ccc(/C=C2\OC(=O)c3c2cc(C)[nH]c3=O)c(C)c1C

1. 65.8%
2. 57.3%
3. 99.9%
4. 63.7%

* * *

target: Leishmania donovani Topoisomerase 1 (LdTop1) (Leishmania donovani, UniProt A0A3Q8IHS4+Q8WQM6); assay: Plasmid DNA relaxation assay, LdTop1 (simultaneous incubation); type: biochemical; conditions: plasmid DNA relaxation; averages of three experiments; read-out: LDTop1 inhibition (EC50)
value_type: EC50

Consider the following illustrative entries.
>  <structure_string>
COc1cccc(/C=C2\OC(=O)c3c2cc(C)[nH]c3=O)c1OC

>  <EC50>
> 100 µM

$$$$
>  <structure_string>
COc1ccc(/C=C2\OC(=O)c3c2cc(C)[nH]c3=O)cc1

>  <EC50>
> 100 µM

$$$$

The following molecules each have a reported value; give each one's EC50.
1. Cc1cc2c(c(=O)[nH]1)C(=O)O/C2=C\c1cccc(Br)c1
2. Cc1cc2c(c(=O)[nH]1)C(=O)O/C2=C\c1ccccc1Br
3. Cc1cc2c(c(=O)[nH]1)C(=O)O/C2=C\c1ccccc1
4. Cc1cc2c(c(=O)[nH]1)C(=O)O/C2=C\c1ccc(I)cc1
5. Cc1cc2c(c(=O)[nH]1)C(=O)O/C2=C\c1ccccc1C(F)(F)F

7.51 µM
> 100 µM
> 100 µM
> 100 µM
9.06 µM

Look at each molecule and report its EC50.
1. Cc1cc2c(c(=O)[nH]1)C(=O)O/C2=C\c1ccc(F)c(F)c1
2. Cc1cc2c(c(=O)[nH]1)C(=O)O/C2=C\c1c[nH]c2ccccc12
3. Cc1cc2c(c(=O)[nH]1)C(=O)O/C2=C\c1cccc(I)c1
4. CC/C=C1\OC(=O)c2c1cc(C)[nH]c2=O
5. Cc1cc2c(c(=O)[nH]1)C(=O)O/C2=C\c1cccc2ccccc12

["> 100 µM", "> 100 µM", "17.4 µM", "> 100 µM", "> 100 µM"]
